# PROCEDURE_TEXT: equilibrium solubility experiments in buffer media at different pH conditions
# Format: physicochemical
# COND: buffer media, pH 3, aqueous buffer, thermodynamic from solid, pH 3.0 buffer, 1 h

# STRUCTURE_SMILES, solubility at 1 h (µg/mL)
data = [
    ("Cc1nnc(-c2cc(C(=O)N3CCC(c4ccc(C#N)cc4)CC3)c(C)cc2C2CCC2)[nH]1", 1.07),
]

====

# PROCEDURE_TEXT: equilibrium solubility experiments in buffer media at different pH conditions
# Format: physicochemical
# COND: buffer media, pH 1.2, simulated gastric fluid, thermodynamic from solid, pH 1.2 buffer, 22 h
MEASUREMENT_LABEL: solubility at 22 h

# STRUCTURE_SMILES, RESULT
data = [
    ("Cc1nnc(-c2cc(C(=O)N3CCC(c4ccc(C#N)cc4)CC3)c(C)cc2C2CCC2)[nH]1", "27.2 µg/mL"),
]

Values compiled from patent EP4748373A1.
